I'd appreciate it if you could supply MIC values for the items below.
Test system: Proteus vulgaris OX19
Assay: Minimum inhibition concentration (MIC), agar double dilution method
Type: cell-based
Settings: Mueller hinton agar
Give bare numbers, in µg/mL.

The following molecules have reported results that may help.
[[record]]
molecule = "CC[C@H]1OC(=O)C[C@@H](O)[C@H](C)[C@@H](O[C@@H]2O[C@H](C)C(O)C(N(C)C)C2O)[C@@H](CCN2CCC(C)CC2)C[C@@H](C)C(=O)/C=C/C(C)=C/[C@@H]1CN1CCC(C)CC1 (some centres unmarked)"
attribute_measured = "MIC"
unit_string = "µg/mL"
reading = 12.5

[[record]]
molecule = "CC[C@H]1OC(=O)C[C@@H](O)[C@H](C)[C@@H](O[C@@H]2O[C@H](C)C(O)C(N(C)C)C2O)[C@@H](CCN(C)C2CCCCC2)C[C@@H](C)C(=O)/C=C/C(C)=C/[C@@H]1CN(C)C1CCCCC1 (some centres unmarked)"
attribute_measured = "MIC"
unit_string = "µg/mL"
reading = 12.5

[[record]]
molecule = "CC[C@H]1OC(=O)C[C@@H](O)[C@H](C)[C@@H](O[C@@H]2O[C@H](C)C(O)C(N(C)C)C2O)[C@@H](CCN2CC(C)CC(C)C2)C[C@@H](C)C(=O)/C=C/C(C)=C/[C@@H]1CN1CC(C)CC(C)C1 (some centres unmarked)"
attribute_measured = "MIC"
unit_string = "µg/mL"
reading = 25


Ask | Entry CC[C@H]1OC(=O)C[C@@H](O)[C@H](C)[C@@H](O[C@@H]2O[C@H](C)C(O)C(N(C)C)C2O)[C@@H](CCN(C)Cc2ccccc2)C[C@@H](C)C(=O)/C=C/C(C)=C/[C@@H]1CN(C)Cc1ccccc1 (some centres unmarked) has what MIC?
Reply | 12.5

----------
Tested on: Past haemolytica BAPO103 S801
Test: Minimum inhibition concentration (MIC), agar double dilution method
Type: cell-based, Pasteurella haemolytica
Details: Past haemolytica BAPO103 S801, strain from poultry; BHI agar
I'd appreciate it if you could supply log10 of MIC values for the items below.
The common logarithm of MIC in µg/mL is what is listed.

The following molecules have reported results that may help.
[[record]]
molecule = "CC[C@H]1OC(=O)C[C@@H](O)[C@H](C)[C@@H](O[C@@H]2O[C@H](C)C(O)C(N(C)C)C2O)[C@@H](CCN2CCCC2)C[C@@H](C)C(=O)/C=C/C(C)=C/[C@@H]1CN1CCCC1 (stereo partly drawn)"
reading = 1.40

[[record]]
molecule = "CC[C@H]1OC(=O)C[C@@H](O)[C@H](C)[C@@H](O[C@@H]2O[C@H](C)C(O)C(N(C)C)C2O)[C@@H](CCN2CCCCCCC2)C[C@@H](C)C(=O)/C=C/C(C)=C/[C@@H]1CN1CCCCCCC1 (stereo partly drawn)"
reading = 0.19

[[record]]
molecule = "CC[C@H]1OC(=O)C[C@@H](O)[C@H](C)[C@@H](O[C@@H]2O[C@H](C)C(O)C(N(C)C)C2O)[C@@H](CCN(C)C)C[C@@H](C)C(=O)/C=C/C(C)=C/[C@@H]1CN(C)C (stereo partly drawn)"
reading = 1.70

[[record]]
molecule = "CC[C@H]1OC(=O)C[C@@H](O)[C@H](C)[C@@H](O[C@@H]2O[C@H](C)C(O)C(N(C)C)C2O)[C@@H](CCN2CC(C)CC(C)C2)C[C@@H](C)C(=O)/C=C/C(C)=C/[C@@H]1CN1CC(C)CC(C)C1 (stereo partly drawn)"
reading = 0.19

[[record]]
molecule = "CC[C@H]1OC(=O)C[C@@H](O)[C@H](C)[C@@H](O[C@@H]2O[C@H](C)C(O)C(N(C)C)C2O)[C@@H](CCN(C)Cc2ccccc2)C[C@@H](C)C(=O)/C=C/C(C)=C/[C@@H]1CN(C)Cc1ccccc1 (stereo partly drawn)"
reading = 0.80

[[record]]
molecule = "CCCCCCN(CCCCCC)CC[C@H]1C[C@@H](C)C(=O)/C=C/C(C)=C/[C@H](CN(CCCCCC)CCCCCC)[C@@H](CC)OC(=O)C[C@@H](O)[C@H](C)[C@H]1O[C@@H]1O[C@H](C)C(O)C(N(C)C)C1O (stereo partly drawn)"
reading = 2.00

[[record]]
molecule = "CC[C@H]1OC(=O)C[C@@H](O)[C@H](C)[C@@H](O[C@@H]2O[C@H](C)C(O)C(N(C)C)C2O)[C@@H](CC=O)C[C@@H](C)C(=O)/C=C/C(C)=C/[C@@H]1CN1CCCCC1 (stereo partly drawn)"
reading = -0.11


In the following, a different molecule is considered.
Ask | Entry CC[C@H]1OC(=O)C[C@@H](O)[C@H](C)[C@@H](O[C@@H]2O[C@H](C)C(O)C(N(C)C)C2O)[C@@H](CCN2CCC(C)CC2)C[C@@H](C)C(=O)/C=C/C(C)=C/[C@@H]1CN1CCC(C)CC1 (stereo partly drawn) has what log10 of MIC?
Reply | 0.50

----------
Test system: Past haemolytica BBPO102 N811
Experiment: Minimum inhibition concentration (MIC), agar double dilution method
Type: cell-based, Pasteurella haemolytica
Details: Past haemolytica BBPO102 N811, strain from cattle; BHI agar
Attribute Measured: MIC (µg/mL)
Give bare numbers, in µg/mL.

[[record]]
compound = "CC[C@H]1OC(=O)C[C@@H](O)[C@H](C)[C@@H](O[C@@H]2O[C@H](C)C(O)C(N(C)C)C2O)[C@@H](CCN2CCCCCCC2)C[C@@H](C)C(=O)/C=C/C(C)=C/[C@@H]1CN1CCCCCCC1 (stereo partly shown)"
unit_string = "µg/mL"
reading = 0.39

[[record]]
compound = "CC[C@H]1OC(=O)C[C@@H](O)[C@H](C)[C@@H](O[C@@H]2O[C@H](C)C(O)C(N(C)C)C2O)[C@@H](CCN(C)C)C[C@@H](C)C(=O)/C=C/C(C)=C/[C@@H]1CN(C)C (stereo partly shown)"
unit_string = "µg/mL"
reading = 6.25

[[record]]
compound = "CC[C@H]1OC(=O)C[C@@H](O)[C@H](C)[C@@H](O[C@@H]2O[C@H](C)C(O)C(N(C)C)C2O)[C@@H](CCN(C)Cc2ccccc2)C[C@@H](C)C(=O)/C=C/C(C)=C/[C@@H]1CN(C)Cc1ccccc1 (stereo partly shown)"
unit_string = "µg/mL"
reading = 0.39


Ask | Item: CC[C@H]1OC(=O)C[C@@H](O)[C@H](C)[C@@H](O[C@@H]2O[C@H](C)C(O)C(N(C)C)C2O)[C@@H](CCN(Cc2ccccc2)Cc2ccccc2)C[C@@H](C)C(=O)/C=C/C(C)=C/[C@@H]1CN(Cc1ccccc1)Cc1ccccc1 (stereo partly shown) Test system: Past haemolytica BBPO102 N811 Read-out: MIC Value: ?
Reply | 50

----------
Assay: In vivo kinetics (absorption and excretion test) in mice
Conditions: male, Slc ddY, mouse, lung, sc, 5 mg/kg
Attribute Measured: concentration at 1 h (ng/g)
Answers are plain numbers, in ng/g.

Ask | Entry CC[C@H]1OC(=O)C[C@@H](O)[C@H](C)[C@@H](O[C@@H]2O[C@H](C)C(O)C(N(C)C)C2O)[C@@H](CCN2CC(C)CC(C)C2)C[C@@H](C)C(=O)/C=C/C(C)=C/[C@@H]1CO[C@@H]1OC(C)C(O)[C@@H](OC)C1OC (stereo partly shown) has what concentration at 1 h?
Reply | 350

----------
Assay: In vivo kinetics (absorption and excretion test) in mice
Settings: male, Slc ddY, mouse, lung, sc, 5 mg/kg
Attribute Measured: concentration at 2 h (ng/g)
One number for each entry, in ng/g.

Ask | Entry CC[C@H]1OC(=O)C[C@@H](O)[C@H](C)[C@@H](O[C@@H]2O[C@H](C)C(O)C(N(C)C)C2O)[C@@H](CCN2CC(C)CC(C)C2)C[C@@H](C)C(=O)/C=C/C(C)=C/[C@@H]1CO[C@@H]1OC(C)C(O)[C@@H](OC)C1OC (stereo partly shown) has what concentration at 2 h?
Reply | 310

----------
I'd appreciate it if you could supply MIC values for the items below.
Test system: Past. multocida BSPO302 No. 6
Assay: Minimum inhibition concentration (MIC), agar double dilution method
Assay type: cell-based, Pasteurella multocida
Details: Past. multocida BSPO302 No. 6, strain from a pig; BHI agar
Answers are plain numbers, in µg/mL.

The following compounds have reported results that may help.
[[record]]
compound = "CC[C@H]1OC(=O)C[C@@H](O)[C@H](C)[C@@H](O[C@@H]2O[C@H](C)C(O)C(N(C)C)C2O)[C@@H](CCN2CCC(C)CC2)C[C@@H](C)C(=O)/C=C/C(C)=C/[C@@H]1CN1CCC(C)CC1 (stereo partly drawn) [MP-MT]"
unit_string = "µg/mL"
reading = 0.39

[[record]]
compound = "CC[C@H]1OC(=O)C[C@@H](O)[C@H](C)[C@@H](O[C@@H]2O[C@H](C)C(O)C(N(C)C)C2O)[C@@H](CCN2CCCCCC2)C[C@@H](C)C(=O)/C=C/C(C)=C/[C@@H]1CN1CCCCCC1 (stereo partly drawn) [Compound C-7]"
unit_string = "µg/mL"
reading = 0.39


Ask | Entry CC[C@H]1OC(=O)C[C@@H](O)[C@H](C)[C@@H](O[C@@H]2O[C@H](C)C(O)C(N(C)C)C2O)[C@@H](CCN(C)C)C[C@@H](C)C(=O)/C=C/C(C)=C/[C@@H]1CN(C)C (stereo partly drawn) [Compound C-1] has what MIC?
Reply | 12.5
